Tested on: ZIKV
Assay: ZIKV inhibitory viral plaque reduction assay in Vero E6 cells
Type: cell-based, Zika virus
Settings: Zika virus, Vero C1008; VERO E6 cells, ZIKV M.O.I. 0.1, at least two experiments; read-out: IC50 ± SD (half-maximal inhibitory concentration, ZIKV plaque reduction)
testReadout: pIC50
Recall that pIC50 is obtained by taking minus log10 of the concentration measured in molar.

Prompt line: Give the reported pIC50 for NC(=O)c1ncn([C@@H]2O[C@H](CO)[C@@H](O)[C@H]2O)n1 [ribavirin, reference compound] (system: ZIKV).
Response line: 4.02

* * *

Target: ZIKV NS5 MTase (Zika virus, UniProt A0A024B7W1)
Sequence (A0A024B7W1 2524-2798): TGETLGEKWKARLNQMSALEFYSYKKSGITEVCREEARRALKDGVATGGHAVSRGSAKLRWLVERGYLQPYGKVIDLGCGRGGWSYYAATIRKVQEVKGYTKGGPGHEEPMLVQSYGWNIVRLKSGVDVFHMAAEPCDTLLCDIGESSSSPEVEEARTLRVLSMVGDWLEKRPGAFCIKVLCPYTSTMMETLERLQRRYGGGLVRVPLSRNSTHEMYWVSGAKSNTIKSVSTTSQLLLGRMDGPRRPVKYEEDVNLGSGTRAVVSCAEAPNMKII
Kindly state IC50 for each of the entries shown.

Prompt line: Fill in: IC50 of CN1C(=O)c2ccc(NC(=O)c3cc4ccccc4o3)cc2C1=O is ___
Response line: > 100 µM

Prompt line: Using the record for CNC(=O)c1ccc(NC(=O)c2cc3ccccc3s2)cc1 , report its IC50.
Response line: > 100 µM

Prompt line: Which IC50 is listed for CNC(=O)c1cccc(NC(=O)c2cc3ccccc3s2)c1 ?
Response line: > 100 µM
